// data source = patent US10633337B2

# protocol.summary: Assay 1: stability (influencing factor tests: high temperature, high humidity, illumination) of amorphous form and crystal forms I, II, VII; content and purity by HPLC
# Type: physicochemical
# measurement.context: High temperature 60° C., Day 14
# Experimental: Assay 1: Stability for Amorphous Form and Crystal Forms of the Present Compound Tested sample: amorphous form, crystal form I, crystal form II, and crystal form VII of the compound represented by formula (1) were prepared according to Examples; Test Conditions for Investigating the Influencing Factors: […] Content: it was measured by using an external standard method in accordance with the High Performance Liquid Chromatography in Chinese Pharmacopoeia, Appendix V D, Edition 2010. […]
The entries below are paired with their reported Content.
State just the number; it will be interpreted in %.

Study these solved cases before continuing.
{"molecule": "CN(C)c1cc(CN2CC3CC3C2)c(O)c2c1C[C@H]1C[C@H]3[C@H](N(C)C)C(O)=C(C(N)=O)C(=O)[C@@]3(O)C(O)=C1C2=O (stereo partly shown) [Crystal form I]", "Content / %": 97.3}
{"molecule": "CN(C)c1cc(CN2CC3CC3C2)c(O)c2c1C[C@H]1C[C@H]3[C@H](N(C)C)C(O)=C(C(N)=O)C(=O)[C@@]3(O)C(O)=C1C2=O (stereo partly shown) [Crystal form VII]", "Content / %": 93.6}
{"molecule": "CN(C)c1cc(CN2CC3CC3C2)c(O)c2c1C[C@H]1C[C@H]3[C@H](N(C)C)C(O)=C(C(N)=O)C(=O)[C@@]3(O)C(O)=C1C2=O (single isomer, unassigned) [Crystal form II]", "Content / %": 96.0}

Next molecule, please.
Query string: Name the recorded Content for CN(C)c1cc(CN2CC3CC3C2)c(O)c2c1C[C@H]1C[C@H]3[C@H](N(C)C)C(O)=C(C(N)=O)C(=O)[C@@]3(O)C(O)=C1C2=O (stereo partly shown) [Amorphous form] .
Result string: 90.5

----------
# protocol.summary: Assay 1: stability (influencing factor tests: high temperature, high humidity, illumination) of amorphous form and crystal forms I, II, VII; content and purity by HPLC
# Type: physicochemical
# measurement.context: 25° C./75% ± 5% RH, Day 14
recorded.metric: Content (%)
# value in %; strip the unit string

Query string: Name the reported Content value associated with the compound CN(C)c1cc(CN2CC3CC3C2)c(O)c2c1C[C@H]1C[C@H]3[C@H](N(C)C)C(O)=C(C(N)=O)C(=O)[C@@]3(O)C(O)=C1C2=O (single isomer, unassigned) [Crystal form II]
Result string: 96.1

Query string: What value of measured Content is listed for CN(C)c1cc(CN2CC3CC3C2)c(O)c2c1C[C@H]1C[C@H]3[C@H](N(C)C)C(O)=C(C(N)=O)C(=O)[C@@]3(O)C(O)=C1C2=O (stereo partly shown) [Crystal form I] ?
Result string: 98.2

Query string: Param item = CN(C)c1cc(CN2CC3CC3C2)c(O)c2c1C[C@H]1C[C@H]3[C@H](N(C)C)C(O)=C(C(N)=O)C(=O)[C@@]3(O)C(O)=C1C2=O (stereo partly shown) [Crystal form VII] ; retrieve measured Content.
Result string: 95.8

Query string: # input compound: CN(C)c1cc(CN2CC3CC3C2)c(O)c2c1C[C@H]1C[C@H]3[C@H](N(C)C)C(O)=C(C(N)=O)C(=O)[C@@]3(O)C(O)=C1C2=O (stereo partly shown) [Amorphous form] ; wanted: its Content
Result string: 93.3
